# test system: T1, recombinant human C5 (human, UniProt P01031 20-1676)
# T1 construct: The same entry is used here for C5 in normal human serum in the functional rows; also called hC5; rhC5
# assay info: SPR (BIACORE T200), antibody captured by ProA/G, recombinant human C5 injected, 37 degrees C, pH5.8; pH 5.8
Could you mark each record Y if its kon falls strictly under 500000 M⁻¹ s⁻¹, and N if it equals or exceeds it?

Below, 5 binders whose answers are already recorded.
>>> group("CFA0666 (antibody, V domains shown) VH: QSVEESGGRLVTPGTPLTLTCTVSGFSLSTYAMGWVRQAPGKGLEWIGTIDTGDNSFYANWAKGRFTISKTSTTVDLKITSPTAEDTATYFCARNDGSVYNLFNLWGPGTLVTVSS VL: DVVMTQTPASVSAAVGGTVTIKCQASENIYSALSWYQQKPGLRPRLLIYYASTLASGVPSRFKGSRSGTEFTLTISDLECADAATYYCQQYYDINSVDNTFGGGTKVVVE")
"Y"
>>> group("CFA0307 (antibody, V domains shown) VH: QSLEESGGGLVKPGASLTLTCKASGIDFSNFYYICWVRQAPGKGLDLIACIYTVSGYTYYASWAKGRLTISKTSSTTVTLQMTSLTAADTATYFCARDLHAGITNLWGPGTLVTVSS VL: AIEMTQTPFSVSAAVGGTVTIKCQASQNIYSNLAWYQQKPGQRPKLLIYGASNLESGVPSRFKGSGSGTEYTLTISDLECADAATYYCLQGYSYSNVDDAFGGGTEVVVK")
"Y"
>>> group("CFA0599 (antibody, V domains shown) VH: QSVEESGGRLVTPGTPLTLTCTVSGLSLSDNTMTWVRQAPGKGLEWIGIISFGGDAYYASWAKGRFPISKTSTTVDLRITSPTTEDTATYFCARVGAGNIFWYFDLWGPGTLVTVSS VL: AYDMTQTPASVEVSVGGTVTIKCQASESIYSALAWYQQKPGQPPKLLIYSASTLASGVPSRFKGSGSGTEYTLTISDLECADAATYYCQQYYSSTNVHNSFGGGTTVVVE")
"Y"
>>> group("CFA0330 (antibody, V domains shown) VH: QSLEESGGDLVEPGASLTLTCTASGFSWNSGYDMCWVRQAPGKGLEWIACIYTGSSANTAYANWAKGRFTISKTSSTTVTLQMTGLTAADTATYFCARHDDYFFDLWGPGTLVTVSS VL: DVVMTQTPASVSESVGGTVTINCQASQSIGNNLAWYQQKPGQPPKLLIYDASNLASGVPSRFKGSRSGTEPTLTNTLTISGVQCADVATYYCQSGWYGNSYVAAFGGGTEVVVKR")
"N"
>>> group("CFA0538 (antibody, V domains shown) VH: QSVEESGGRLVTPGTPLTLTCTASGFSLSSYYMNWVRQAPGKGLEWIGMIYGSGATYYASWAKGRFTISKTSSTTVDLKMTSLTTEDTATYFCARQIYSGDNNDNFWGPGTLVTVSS VL: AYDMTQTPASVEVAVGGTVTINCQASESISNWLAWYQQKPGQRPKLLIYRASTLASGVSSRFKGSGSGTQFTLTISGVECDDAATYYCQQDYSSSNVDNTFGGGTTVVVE")
"Y"

As a next step, examine the binder that follows.
Please determine if CFA0366 (antibody, V domains shown) VH: QSLEESGGDLVKPGASLSLTCTAAGLDFSSSYYMCWVRQAPGKGLEWIACIYAGSSGIIYYANWAKGRFTISRPSSTTVTLQMTSLTAADTATYFCATYPTYGDGGHAFNLWGPGTLVTVSS VL: AQVLTQTPSSVSAAVGGTVTINCQSSQSVYSSDYLSWYQQKPGQPPKLLIYEASKLASGVPPRFSGSGSGTQFTLTISGVQCDDAATYYCQGTYYSSGWYFAFGGGTEVVVK is below 500000 M⁻¹ s⁻¹ in terms of kon. N
